# Assayed target: mTOR/GbL/Raptor (mTORC1) (Homo sapiens)
# Experiment: mTOR/GbL/Raptor (mTORC1) ELISA assay
# Conditions used: phosphorylation of 4E-BP1; 0.2 nM mTORC1, 10 μM ATP; read-out: IC50 in this assay (mTORC1 ELISA)
pIC50: −log10 of the molar value.
Property: pIC50

# Smiles record, Value observed
rows = [
    ("COc1ccc2c(N3CCOc4ccc(-c5cnc6sc(N)nc6c5)cc4C3)nc(CN(C)C)nc2c1", "6.00 to 6.60"),
    ("COc1c(OCC(C)C)ccc2c(N3CCOc4ccc(-c5ccc6nc(C)[nH]c6c5)cc4C3)ncnc12", "6.00 to 6.60"),
    ("COc1ccc2c(N3CCOc4ccc(-c5ccc6[nH]c(=O)[nH]c6c5)cc4C3)nc(C)nc2c1", "≤ 5.70"),
    ("COc1c(OCc2ccccc2)ccc2c(N3CCOc4ccc(-c5ccc6nc(C)[nH]c6c5)cc4C3)ncnc12", "6.60 to 7.30"),
    ("CNS(=O)(=O)c1cc(-c2ccc3c(c2)CN(c2ncnc4c2CC(C)(C)C=C4)CCO3)cnc1N", "≥ 8.00"),
]

Ask: Fill in: pIC50 of `CNCCN(C)c1ncnc(N2CCOc3ccc(-c4cnc5nc(C6CC6)[nH]c5c4)cc3C2)c1C` is ___
Reply: 6.00 to 6.60

Ask: Subsequent entry: `CC1(C)CCc2ncnc(N3CCOc4ccc(-c5cnc6nc[nH]c6c5)cc4C3)c2C1`
Reply: ≥ 8.00

Ask: Subsequent entry: `Cc1ccc(Cc2c(C)ncnc2N2CCOc3ccc(-c4ccc5nc(C)[nH]c5c4)cc3C2)cc1`
Reply: ≥ 8.00

###

# Assayed target: mTOR/GbL/Raptor (mTORC1) (Homo sapiens)
# Experiment: mTOR/GbL/Raptor (mTORC1) ELISA assay
# Conditions used: phosphorylation of 4E-BP1; 0.2 nM mTORC1, 10 μM ATP; read-out: IC50 in this assay (mTORC1 ELISA)
# Procedure: The measurement of mTORC1 enzyme activity was performed in an ELISA assay format following the phosphorylation of 4E-BP1 protein. All experiments were performed in the 384-well format. Generally, 0.5 μL DMSO containing varying concentrations of the test Compound was mixed with 15 μL enzyme solution. […] Following the final wash step with TBST, 20 μL of SuperSignal ELISA Femto (Pierce Biotechnology) was added and the luminescence measured using an EnVision plate reader.
pIC50: −log10 of the molar value.
Property: pIC50

Ask: Fill in: pIC50 of `CCNc1nc2ccc(-c3ccc4c(c3)CN(c3nc(CC)nc5ccccc35)CCO4)cc2[nH]1` is ___
Reply: 6.60 to 7.30

Ask: Subsequent entry: `c1cc(N2CCOc3ccc(-c4ccc5nc[nH]c5c4)cc3C2)ncn1`
Reply: ≤ 5.70

Ask: Subsequent entry: `CC(=O)OCc1nc(C)c(Cc2ccc(F)cc2)c(N2CCOc3ccc(-c4ccc5[nH]c(C)nc5c4)cc3C2)n1`
Reply: ≥ 8.00

Ask: Subsequent entry: `COc1cc2c(N3CCOc4ccc(-c5cnc6nc(N)[nH]c6c5)cc4C3)ncnc2cc1Br`
Reply: 6.00 to 6.60

###

In this section, each of the molecules is paired with its reported IC50.
# Assayed target: mTOR/GbL/Raptor (mTORC1) (Homo sapiens)
# Experiment: mTOR/GbL/Raptor (mTORC1) ELISA assay
# Conditions used: phosphorylation of 4E-BP1; 0.2 nM mTORC1, 10 μM ATP; read-out: IC50 in this assay (mTORC1 ELISA)

# Smiles record, Value observed
records = [
    ("Cc1nc2ncc(-c3ccc4c(c3)CN(c3nc(CO)nc5c3CC(C)(C)CC5)CCO4)cc2[nH]1", "≤ 10 nM"),
    ("CC1(C)CCc2ncnc(N3CCOc4ccc(-c5cnc6nc(N)[nH]c6c5)cc4C3)c2C1", "≤ 10 nM"),
]

Ask: Request - read-out IC50 | tested on mTOR/GbL/Raptor (mTORC1) (Homo sapiens) | molecule `COc1ccc(-c2ccc3c(c2)CN(c2nc(CN(C)C)nc4c2CC(C)(C)CC4)CCO3)cc1Cl`
Reply: 250 to 1000 nM

Ask: Subsequent entry: `CC1(C)C=Cc2ncnc(N3CCOc4ccc(-c5cnc(N)c(S(=O)(=O)N6CC[C@@H](N)C6)c5)cc4C3)c2C1`
Reply: ≤ 10 nM

###

# Assayed target: mTOR/GbL/Raptor (mTORC1) (Homo sapiens, UniProt P42345)
# Experiment: mTOR/GbL/Raptor (mTORC1) ELISA assay
# Conditions used: phosphorylation of 4E-BP1; 0.2 nM mTORC1, 10 μM ATP; read-out: IC50 in this assay (mTORC1 ELISA)
pIC50: −log10 of the molar value.
Property: pIC50

# Molecule, Assayed target, pIC50
data = [
    ("Cc1ncnc(N2CCOc3ccc(-c4cnc5nc(N)cn5c4)cc3C2)c1Cc1ccc(F)cc1 [Example 144]", "mTOR/GbL/Raptor (mTORC1) (Homo sapiens, UniProt P42345)", "7.30 to 8.00"),
    ("Cc1nc2ccc(-c3ccc4c(c3)CN(c3nc(SCc5ccccc5)nc5c3CCC5)CCO4)cc2[nH]1 [Example 53]", "mTOR/GbL/Raptor (mTORC1) (Homo sapiens, UniProt P42345)", "6.00 to 6.60"),
    ("COc1ccc(-c2ccc3c(c2)CN(c2nc(CN(C)C)nc4c2CC(C)(C)CC4)CCO3)cc1S(C)(=O)=O [Example 652]", "mTOR/GbL/Raptor (mTORC1) (Homo sapiens, UniProt P42345)", "6.00 to 6.60"),
    ("C=Cc1nc2c(c(N3CCOc4ccc(-c5cnc6[nH]c(C)nc6c5)cc4C3)n1)CC(C)(C)CC2 [Example 465]", "mTOR/GbL/Raptor (mTORC1) (Homo sapiens, UniProt P42345)", "7.30 to 8.00"),
]

Ask: Fill in: pIC50 of CN(C)C(=O)c1cccc(-c2ccc3c(c2)CN(c2ccnc4ccccc24)CCO3)c1 [Example 134] is ___
Reply: ≤ 5.70

Ask: Subsequent entry: Cc1nc2cc(-c3ccc4c(c3)CN(c3nc(CN5CCCC5)nc(C)c3C(C)C)CCO4)ccc2[nH]1 [Example 675]
Reply: 6.60 to 7.30

Ask: Subsequent entry: Cc1nc2ncc(-c3ccc4c(c3)CN(c3nc(CNC(C)(C)C)nc5c3CC(C)(C)CC5)CCO4)cc2[nH]1 [Example 595]
Reply: 7.30 to 8.00

###

# Assayed target: mTOR/GbL/Raptor (mTORC1) (Homo sapiens, UniProt P42345)
# Experiment: mTOR/GbL/Raptor (mTORC1) ELISA assay
# Conditions used: phosphorylation of 4E-BP1; 0.2 nM mTORC1, 10 μM ATP; read-out: IC50 in this assay (mTORC1 ELISA)
Property: IC50

Guide cases for IC50, answers given:
# Compound, Assayed target, Value observed
data = [
    ("CC1(C)CCc2ncnc(N3CCOc4ccc(-c5cnc(Cl)c(OC(F)F)c5)cc4C3)c2C1", "mTOR/GbL/Raptor (mTORC1) (Homo sapiens, UniProt P42345)", "250 to 1000 nM"),
    ("Cc1nc2ncc(-c3ccc4c(c3)CN(c3ncnc(C)c3C)CCO4)cc2[nH]1", "mTOR/GbL/Raptor (mTORC1) (Homo sapiens, UniProt P42345)", "250 to 1000 nM"),
    ("CCCOc1ccc2ncnc(N3CCOc4ccc(-c5ccc6nc(C)[nH]c6c5)cc4C3)c2c1", "mTOR/GbL/Raptor (mTORC1) (Homo sapiens, UniProt P42345)", "250 to 1000 nM"),
    ("Cc1nc2ccc(-c3ccc4c(c3)CN(c3ncnc5c(C#N)c6n(c35)CCCC6)CCO4)cc2[nH]1", "mTOR/GbL/Raptor (mTORC1) (Homo sapiens, UniProt P42345)", "250 to 1000 nM"),
    ("C[C@H](NC(=O)OCc1ccccc1)c1nc2ncc(-c3ccc4c(c3)CN(c3ncnc5c3CC(C)(C)CC5)CCO4)cc2[nH]1", "mTOR/GbL/Raptor (mTORC1) (Homo sapiens, UniProt P42345)", "250 to 1000 nM"),
]

Ask: Fill in: IC50 of `Cc1nc2ncc(-c3ccc4c(c3)CN(c3nc(CN)nc5c3CC(C)(C)CC5)CCO4)cc2[nH]1` is ___
Reply: ≤ 10 nM

Ask: Subsequent entry: `CC[C@H]1CCc2c(ncnc2N2CCOc3ccc(-c4cnc(N)c(S(=O)(=O)N5C[C@@H]6C[C@H]5CN6)c4)cc3C2)C1`
Reply: 10 to 50 nM

Ask: Subsequent entry: `CCc1c(C)nc(CN(C)C)nc1N1CCOc2ccc(-c3cnc4sc(N)nc4c3)cc2C1`
Reply: 50 to 250 nM

Ask: Subsequent entry: `Cc1nc2ccc(-c3ccc4c(c3)CN(c3ncnc(C)c3Cc3cccc(F)c3)CCO4)cc2[nH]1`
Reply: ≤ 10 nM

Ask: Subsequent entry: `CC1(C)CCc2ncnc(N3CCOc4ccc(-c5ccc(-c6ncc[nH]6)cc5)cc4C3)c2C1`
Reply: ≤ 10 nM

Ask: Subsequent entry: `CC1(C)CCc2ncnc(N3CCOc4ccc(-c5cncc(S(N)(=O)=O)c5)cc4C3)c2C1`
Reply: 250 to 1000 nM
